Provenance of the data: a melting point compilation (Tetko et al.; mined from patent text by program, amines drawn as free bases though some values may be those of a salt)

Below, each entry is listed alongside its reported melting point.

- COC(=O)C1=C(C)NC(C)=C(C(=O)OCCCOc2ccc(CCCCO)cc2)C1c1cccc([N+](=O)[O-])c1 (centres undefined): 72 °C

Tell me the measured melting point of CC12CCC3c4ccc(C(=O)O)cc4CCC3C1CCC2C(=O)CCC1CCCCC1 (centres undefined) , please.
250 to 253 °C

---

Below, each entry is listed alongside its reported melting point.

Example compounds with recorded melting point:
- O=C(c1ccc(-c2ccc3nnn(Cc4ccc5ncccc5c4)c3n2)cc1)N1CCC(N2CCCC2)CC1: 125 to 127 °C
- CC1(c2c[nH]cn2)CCc2ccccc21 (configuration not stated): 164 to 171 °C
- CCOC(=O)NCCc1cccc(C(=O)C=CN(C)C)c1: 45 to 50 °C
- CC(=O)Nc1cc(C(=O)O)cc(C(F)(F)F)c1: 194 to 220 °C
- Cc1cc(COc2nn3c(-c4ccccc4)nnc3cc2-c2ccccc2)no1: 180 °C
- O=[N+]([O-])C(CO)(CO)c1cc(Br)cnc1Cl: 162 to 163 °C
- O=C1Nc2c(ccc3ccccc23)SC1c1ccc(Cl)cc1 (configuration not stated): 236 to 238 °C
- FC(F)(F)c1c[nH]cc1-c1cccc(Cl)c1Cl: 63 to 65 °C

Tell me the measured melting point of OCc1n[nH]c(-c2ccc(CN3CCCCCC3)s2)n1 , please.
159 to 161 °C

Same question for CS(=O)c1c(C2(C)NCCS2)nn(-c2c(Cl)cc(C(F)(F)F)cc2Cl)c1N (configuration not stated) please.
85 °C

Same question for N=C(Nc1ccc(Cl)cc1)Nc1ncccc1OCc1c(F)cccc1F please.
146 to 148 °C

Same question for CNC(=O)c1ccccc1Nc1nc(Nc2ccc3c(c2)CCC(NCC(F)F)CC3)ncc1Cl (configuration not stated) please.
182 to 183 °C

Same question for O=C(O)C1Cc2ccccc2CN1C(=O)CCS (configuration not stated) please.
55 to 58 °C

Same question for CN1CCOC2c3cccc4[nH]cc(c34)CC21 (configuration not stated) please.
175 to 177 °C

Same question for CN1C(=O)C(c2cccc(Br)c2)(c2cnn(CC(F)(F)F)c2)N=C1N (configuration not stated) please.
80 to 82 °C

Same question for CCCCCCCCCCCCC(=O)NN please.
101 to 104 °C

Same question for CCOc1cc2c(Nc3cc(OC)c(Cl)cc3Cl)c(C#N)cnc2cc1OCCCC1CCN(C)CC1 please.
148 to 151 °C

---

measure: melting point

- Cc1c(Cl)ccc(S(C)(=O)=O)c1C=NO: 164 to 168 °C

Tell me the measured melting point of COc1ccc(N=C(C#Cc2ccccc2)N2CCN(Cc3ccc(C)cc3)CC2)cc1Cl , please.
113 °C

---

Below, each entry is listed alongside its reported melting point.

* CC(C)Cc1ccc(C(C)COC(=O)c2cc(O)c3c(c2)C(=O)c2cccc(O)c2C3=O)cc1 (stereo not given) | 115 °C

Tell me the measured melting point of CN(C)CCNc1c2nc3ccccc3c-2n(C)c2ccccc12 , please.
162 to 164 °C

Same question for O=c1cc(-c2ccc(CO)cc2)oc2ccc(O)cc12 please.
262 to 265 °C

Same question for CCCCC[C@@H](CC(=O)NO)C(=O)N[C@H](CC(C)C)C(=O)N[C@@H](C)C(N)=O please.
134 to 136 °C

Same question for CCCNc1ccc2nc(NC(=O)c3ccc(C(C)(C)C)cc3)cn2n1 please.
243 to 244 °C
